molecular target: PAR-2 (Homo sapiens, UniProt P55085); test: Calcium immobilization assay (Calcium-4 assay kit); assay type: cell-based; conditions: HCT-15 cells over-expressing PAR-2; activating peptide (AP) as PAR-2 activating agent; inhibitor treated for 5 minutes before AP
Sequence (P55085 26-397): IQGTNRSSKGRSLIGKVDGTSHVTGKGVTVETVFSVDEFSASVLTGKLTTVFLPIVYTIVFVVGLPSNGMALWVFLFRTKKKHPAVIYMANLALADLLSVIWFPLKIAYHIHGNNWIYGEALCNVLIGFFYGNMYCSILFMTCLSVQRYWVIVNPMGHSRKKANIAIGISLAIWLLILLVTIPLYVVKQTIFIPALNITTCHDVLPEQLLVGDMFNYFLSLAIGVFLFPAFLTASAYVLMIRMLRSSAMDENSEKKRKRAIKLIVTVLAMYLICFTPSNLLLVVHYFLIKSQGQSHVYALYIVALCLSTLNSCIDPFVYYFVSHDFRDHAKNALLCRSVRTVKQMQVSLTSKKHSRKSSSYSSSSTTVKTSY
We begin with a simple list: items and their reported IC50.

chem smiles | target desc | IC50 [µM]
Cc1nc2ccc(C(=O)N3CCN(C(=O)C4CCCCC4)CC3)cn2c1-c1ccccc1 | PAR-2 (Homo sapiens, UniProt P55085) | 76.7
Cc1cccc(-c2c(C)nc3ccc(C(=O)N4CCCCC4)cn23)c1 | PAR-2 (Homo sapiens, UniProt P55085) | 73.8
